I'd be grateful if you could share measured pKi for these entries.
Biological target: mu-type opioid binding sites (Rattus norvegicus)
Construct: Rat brain membranes were prepared
Sequence (P33535 whole entry): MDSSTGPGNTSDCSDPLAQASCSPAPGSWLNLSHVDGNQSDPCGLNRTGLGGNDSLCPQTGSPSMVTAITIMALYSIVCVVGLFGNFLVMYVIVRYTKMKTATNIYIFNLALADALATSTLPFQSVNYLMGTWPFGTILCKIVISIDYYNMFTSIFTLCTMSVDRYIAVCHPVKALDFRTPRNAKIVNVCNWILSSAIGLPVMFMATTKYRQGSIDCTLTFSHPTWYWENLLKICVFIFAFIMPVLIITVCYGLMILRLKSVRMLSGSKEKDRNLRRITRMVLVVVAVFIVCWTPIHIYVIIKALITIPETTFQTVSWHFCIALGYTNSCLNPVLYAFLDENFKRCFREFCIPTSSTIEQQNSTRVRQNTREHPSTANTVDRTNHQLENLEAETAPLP
Assay: Mu-site binding, 0.2 nM [3H]-dihydromorphine, rat brain membranes
Conditions: [3H]-DHM; read-out: Ki, mu (inhibition of binding)
Please treat pKi as minus the base-10 logarithm of the molar concentration.

What the record says about C=CCN1CC[C@]23c4c5ccc(O)c4O[C@H]2C(=NN=C2CC[C@H]4[C@@H]6CCc7cc(O)ccc7[C@H]6CC[C@]24C)CC[C@@]3(O)[C@H]1C5 [NAL-E] : pKi is 7.77

What the record says about C=CCN1CC[C@]23c4c5ccc(O)c4O[C@H]2C(=NN=C2C=C4CC[C@@H]6[C@H](CC[C@]7(C)C(=NN=C8CC[C@@]9(O)[C@H]%10Cc%11ccc(O)c%12c%11[C@@]9(CCN%10CC=C)[C@H]8O%12)CC[C@@H]67)[C@@]4(C)CC2)CC[C@@]3(O)[C@H]1C5 [NAL-AD-NAL] : pKi is 8.80

----------
Target: opioid receptors in rat brain membrane preparations (Rattus norvegicus, UniProt P33535)
Sequence (P33535 whole entry): as above
Test: 3H-DHM displacement from rat brain membranes (Example 4 method)
Conditions: 3H-DHM displacement
I'd be grateful if you could share measured Hill coefficient for these entries.
Answer with a bare number; do not write a unit.

Per the reported opioid receptors in rat brain membrane preparations (Rattus norvegicus, UniProt P33535) data, `C=CCN1CC[C@]23c4c5ccc(O)c4O[C@H]2C(=NNC(=S)Nc2ccc4c(c2)C(=O)OC42c4ccc(O)cc4Oc4cc(O)ccc42)CC[C@@]3(O)[C@H]1C5` has Hill coefficient of 0.671

Per the reported opioid receptors in rat brain membrane preparations (Rattus norvegicus, UniProt P33535) data, `O=C1OC2(c3ccc(O)cc3Oc3cc(O)ccc32)c2ccc(NC(=S)NN=C3CC[C@@]4(O)[C@H]5Cc6ccc(O)c7c6[C@@]4(CCN5CC4CC4)[C@H]3O7)cc21` has Hill coefficient of 0.675

Per the reported opioid receptors in rat brain membrane preparations (Rattus norvegicus, UniProt P33535) data, `CN1CC[C@]23c4c5ccc(O)c4O[C@H]2C(=NNC(=S)Nc2ccc4c(c2)C(=O)OC42c4ccc(O)cc4Oc4cc(O)ccc42)CC[C@@]3(O)[C@H]1C5` has Hill coefficient of 0.989

Per the reported opioid receptors in rat brain membrane preparations (Rattus norvegicus, UniProt P33535) data, `C=CCN1CC[C@]23c4c5ccc(O)c4O[C@H]2C(=NNC(=S)Nc2ccc(-c4c6ccc(=[N+](C)C)cc-6oc6cc(N(C)C)ccc46)c(C(=O)[O-])c2)CC[C@@]3(O)[C@H]1C5` has Hill coefficient of 1.09

----------
I'd be grateful if you could share measured pKd for these entries.
Biological target: opioid receptors in rat brain membrane preparations (Rattus norvegicus)
Assay: biochemical
Please treat pKd as minus the base-10 logarithm of the molar concentration.

Per the reported opioid receptors in rat brain membrane preparations (Rattus norvegicus) data, `O=C1OC2(c3ccc(O)cc3Oc3cc(O)ccc32)c2ccc(NC(=S)NN=C3CC[C@@]4(O)[C@H]5Cc6ccc(O)c7c6[C@@]4(CCN5CC4CC4)[C@H]3O7)cc21` has pKd of 8.59

Per the reported opioid receptors in rat brain membrane preparations (Rattus norvegicus) data, `C=CCN1CC[C@]23c4c5ccc(O)c4O[C@H]2C(=NNC(=S)Nc2ccc4c(c2)C(=O)OC42c4ccc(O)cc4Oc4cc(O)ccc42)CC[C@@]3(O)[C@H]1C5` has pKd of 7.94

----------
I'd be grateful if you could share measured Kd for these entries.
Please state the figure in nM; there is no need to write the unit.

Per the reported opioid receptors in rat brain membrane preparations (Rattus norvegicus) data, C=CCN1CC[C@]23c4c5ccc(O)c4O[C@H]2C(=NNC(=S)Nc2ccc(-c4c6ccc(=[N+](C)C)cc-6oc6cc(N(C)C)ccc46)c(C(=O)[O-])c2)CC[C@@]3(O)[C@H]1C5 [6-RN] has Kd of 5.3

Per the reported opioid receptors in rat brain membrane preparations (Rattus norvegicus) data, C=CCN1CC[C@]23c4c5ccc(O)c4O[C@H]2C(NC(=S)Nc2ccc4c(c2)C(=O)OC42c4ccc(O)cc4Oc4cc(O)ccc42)CC[C@@]3(O)[C@H]1C5 (single isomer, unassigned) [FAN] has Kd of 18.9

Per the reported opioid receptors in rat brain membrane preparations (Rattus norvegicus) data, CN1CC[C@]23c4c5ccc(O)c4O[C@H]2C(=NNC(=S)Nc2ccc4c(c2)C(=O)OC42c4ccc(O)cc4Oc4cc(O)ccc42)CC[C@@]3(O)[C@H]1C5 [6-FO] has Kd of 12.8

----------
Target: opioid receptor sites (3H-DALE)
Experiment: Site selectivity displacement, 3H-DALE indicator (with cold DHM)
Settings: 0.43 nM cold DHM and 0.43 nM DALE*; determined graphically
Observable: pIC50
Please treat pIC50 as minus the base-10 logarithm of the molar concentration.

What the record says about C=CCN1CC[C@]23c4c5ccc(O)c4O[C@H]2C(=NNC(=S)Nc2ccc4c(c2)C(=O)OC42c4ccc(O)cc4Oc4cc(O)ccc42)CC[C@@]3(O)[C@H]1C5 [6-FN] : pIC50 is 7.77
